Assay Overview: Prodrug activation assessed as enzyme-mediated compound dephosphorylation in presence of human semen prostatic acid phosphatase P1649 at pH 7.4 by HPLC
Condition Description: isolated protein

| Chem Smiles | Drug metabolism |
| --- | --- |
| CSSC(C)(C)CCC(=O)Nc1ccc2[nH]c(C(=O)Nc3ccc4[nH]c(C(=O)N5C[C@@H](CCl)c6c5cc(OP(=O)(O)O)c5ccccc65)cc4c3)cc2c1 | Active |
| CSSCCC(=O)Nc1ccc2[nH]c(C(=O)Nc3ccc4[nH]c(C(=O)N5C[C@@H](CCl)c6c5cc(OP(=O)(O)O)c5ccccc65)cc4c3)cc2c1 | Active |
| O=C(CCS)Nc1ccc2[nH]c(C(=O)Nc3ccc4[nH]c(C(=O)N5C[C@@H](CCl)c6c5cc(OP(=O)(O)O)c5ccccc65)cc4c3)cc2c1 | Active |
| CC(C)(S)CCC(=O)Nc1ccc2[nH]c(C(=O)Nc3ccc4[nH]c(C(=O)N5C[C@@H](CCl)c6c5cc(OP(=O)(O)O)c5ccccc65)cc4c3)cc2c1 | Active |

====

Assay Overview: Solubility in chloroform at 1.5 mg sonicated for 45 mins followed by centrifugation for 45 mins by UV/Vis spectroscopy
Format: physicochemical
Condition Description: 0.75 h
Measure: solubility

| Chem Smiles | Measure | Reported Value |
| --- | --- | --- |
| O=C(CCSSc1ccccn1)Nc1ccc2[nH]c(C(=O)Nc3ccc4[nH]c(C(=O)N5C[C@@H](CCl)c6c5cc(O)c5ccccc65)cc4c3)cc2c1 | solubility | Insoluble |
| CSSCCC(=O)Nc1ccc2[nH]c(C(=O)Nc3ccc4[nH]c(C(=O)N5C[C@@H](CCl)c6c5cc(OP(=O)(O)O)c5ccccc65)cc4c3)cc2c1 | solubility | Insoluble |
| CSSC(C)(C)CCC(=O)Nc1ccc2[nH]c(C(=O)Nc3ccc4[nH]c(C(=O)N5C[C@@H](CCl)c6c5cc(O)c5ccccc65)cc4c3)cc2c1 | solubility | Insoluble |

====

Assay Overview: Solubility in water containing 5% DMSO at 1.5 mg sonicated for 45 mins followed by centrifugation for 45 mins by UV/Vis spectroscopy
Format: physicochemical
Condition Description: 0.75 h
Measure: solubility

| Chem Smiles | Reported Value |
| --- | --- |
| CSSC(C)(C)CCC(=O)Nc1ccc2[nH]c(C(=O)Nc3ccc4[nH]c(C(=O)N5C[C@@H](CCl)c6c5cc(OP(=O)(O)O)c5ccccc65)cc4c3)cc2c1 | soluble |
| O=C(CCS)Nc1ccc2[nH]c(C(=O)Nc3ccc4[nH]c(C(=O)N5C[C@@H](CCl)c6c5cc(OP(=O)(O)O)c5ccccc65)cc4c3)cc2c1 | soluble |
| CC(C)(S)CCC(=O)Nc1ccc2[nH]c(C(=O)Nc3ccc4[nH]c(C(=O)N5C[C@@H](CCl)c6c5cc(OP(=O)(O)O)c5ccccc65)cc4c3)cc2c1 | soluble |
| CSSCCC(=O)Nc1ccc2[nH]c(C(=O)Nc3ccc4[nH]c(C(=O)N5C[C@@H](CCl)c6c5cc(OP(=O)(O)O)c5ccccc65)cc4c3)cc2c1 | soluble |

====

Assay Overview: Prodrug activation assessed as enzyme-mediated compound dephosphorylation in presence of human placenta alkaline phosphatase from P3895 at pH 7.4 by HPLC
Condition Description: isolated protein

| Chem Smiles | Drug metabolism |
| --- | --- |
| CSSC(C)(C)CCC(=O)Nc1ccc2[nH]c(C(=O)Nc3ccc4[nH]c(C(=O)N5C[C@@H](CCl)c6c5cc(OP(=O)(O)O)c5ccccc65)cc4c3)cc2c1 | Active |
| CSSCCC(=O)Nc1ccc2[nH]c(C(=O)Nc3ccc4[nH]c(C(=O)N5C[C@@H](CCl)c6c5cc(OP(=O)(O)O)c5ccccc65)cc4c3)cc2c1 | Active |
| O=C(CCS)Nc1ccc2[nH]c(C(=O)Nc3ccc4[nH]c(C(=O)N5C[C@@H](CCl)c6c5cc(OP(=O)(O)O)c5ccccc65)cc4c3)cc2c1 | Active |
| CC(C)(S)CCC(=O)Nc1ccc2[nH]c(C(=O)Nc3ccc4[nH]c(C(=O)N5C[C@@H](CCl)c6c5cc(OP(=O)(O)O)c5ccccc65)cc4c3)cc2c1 | Active |

The reported measurements were obtained from ChEMBL document CHEMBL2157989.
